Origin of measurements: patent US20250051350A1

assay: Intravenous and oral pharmacokinetics in mice; assay type: in vivo; details: mouse, plasma; PO, male C57BL/6J mice
VALUE KIND: bioavailability (%)
One number for each entry, in %.

Look up bioavailability for this compound: C[C@@H]1CC[C@H]2[C@@H](C)C(OC(=O)N3CC4(CCNC4=O)C3)O[C@H]3O[C@@]4(C)CC[C@@H]1[C@]32OO4 (stereo partly shown)
73

###

assay: Intravenous and oral pharmacokinetics in mice; assay type: in vivo; details: PO, male C57BL/6J mice
VALUE KIND: PO Bioavailability

Known PO Bioavailability results, listed for orientation:
MOLECULE: CC1CCC2C(C)C(OC(=O)N3CC(C)(C(=O)N(C)C)C3)OC3OC4(C)CCC1C32OO4 (centres unmarked) [PT-29]
PO Bioavailability: 34%
--
MOLECULE: CC1CCC2C(C)C(OC(=O)N3CC(C)(N)C3)OC3OC4(C)CCC1C32OO4 (centres unmarked) [PT-24]
PO Bioavailability: 123%
--
MOLECULE: CC1CCC2C(C)C(OC(=O)N(C)CCO)OC3OC4(C)CCC1C32OO4 (centres unmarked) [PT-20, DHA (2-hydroxyethyl)(methyl)carbamate]
PO Bioavailability: 73%
--
MOLECULE: C[C@H]1[C@@H](OC(=O)C(C)(C)CO)O[C@@H]2O[C@@]3(C)CC[C@H]4[C@H](C)CC[C@@H]1[C@@]24OO3 [PT-2, DHA 3-hydroxy-2,2-dimethylpropanoate]
PO Bioavailability: 27%
--
MOLECULE: CC1CCC2C(C)C(OC(=O)N3CC(O)C3)OC3OC4(C)CCC1C32OO4 (centres unmarked) [PT-13, DHA 3-hydroxyazetidine-1-carboxylate]
PO Bioavailability: 64%

Hi there! I need PO Bioavailability for each item below, if you can.
1. CC(CO)C(=O)OC1OC2OC3(C)CCC4C(C)CCC(C1C)C24OO3 (centres unmarked) [PT-1, DHA 3-hydroxy-2-methylpropionate]
2. CC1CCC2C(C)C(OC(=O)N3CC(C)(C(=O)O)C3)OC3OC4(C)CCC1C32OO4 (centres unmarked) [PT-25]

1: 1.3%; 2: 17%

###

assay: Intravenous and oral pharmacokinetics in mice; format: in vivo; conditions: IV, male C57BL/6J mice, plasma
VALUE KIND: IV T1/2 (min)
Give bare numbers, in min.

The following compounds have reported results that may help.
COMPOUND: CC1CCC2C(C)C(OC(=O)N3CC(O)C3)OC3OC4(C)CCC1C32OO4 (stereo not shown) [PT-13, DHA 3-hydroxyazetidine-1-carboxylate]
IV T1/2 / min: 7.2
--
COMPOUND: CC1CCC2C(C)C(OC(=O)N3CC(C)(C(=O)N(C)C)C3)OC3OC4(C)CCC1C32OO4 (stereo not shown)
IV T1/2 / min: 7.8
--
COMPOUND: CNC(=O)C1(C)CN(C(=O)O[C@H]2O[C@@H]3O[C@@]4(C)CC[C@H]5[C@H](C)CC[C@@H]([C@H]2C)[C@@]35OO4)C1
IV T1/2 / min: 14.4

Here's the next entry for you.
Please look up its IV T1/2: CC1CCC2C(C)C(OC(=O)N3CC(C)(O)C3)OC3OC4(C)CCC1C32OO4 (stereo not shown)
10.8

###

Hi there, I'd appreciate the recorded PO Bioavailability for every entry that follows.
test: Intravenous and oral pharmacokinetics in mice; type: in vivo; details: PO, male C57BL/6J mice
Answers are plain numbers, in %.

COMPOUND: CNC(=O)C1(C)CN(C(=O)O[C@H]2O[C@@H]3O[C@@]4(C)CC[C@H]5[C@H](C)CC[C@@H]([C@H]2C)[C@@]35OO4)C1
VALUE KIND: PO Bioavailability
QUANTITATIVE RESULT: 112

COMPOUND: CC1CCC2C(C)C(OC(=O)CC(C)(C)O)OC3OC4(C)CCC1C32OO4 (stereo not shown) [PT-4, DHA 3-hydroxy-3-methylbutanoate]
VALUE KIND: PO Bioavailability
QUANTITATIVE RESULT: 11

COMPOUND: CC1CCC2C(C)C(OC(=O)N3CC(C)(O)C3)OC3OC4(C)CCC1C32OO4 (stereo not shown)
VALUE KIND: PO Bioavailability
QUANTITATIVE RESULT: 92

Next item in the queue.
Need PO Bioavailability of CC1CCC2C(C)C(OC(=O)N3CC(C)(C(N)=O)C3)OC3OC4(C)CCC1C32OO4 (stereo not shown) , thanks.
41
